Cited source: patent US20230135152A1

Biological target: PIKFYVE (Homo sapiens)
Sequence (Q9Y2I7 whole entry): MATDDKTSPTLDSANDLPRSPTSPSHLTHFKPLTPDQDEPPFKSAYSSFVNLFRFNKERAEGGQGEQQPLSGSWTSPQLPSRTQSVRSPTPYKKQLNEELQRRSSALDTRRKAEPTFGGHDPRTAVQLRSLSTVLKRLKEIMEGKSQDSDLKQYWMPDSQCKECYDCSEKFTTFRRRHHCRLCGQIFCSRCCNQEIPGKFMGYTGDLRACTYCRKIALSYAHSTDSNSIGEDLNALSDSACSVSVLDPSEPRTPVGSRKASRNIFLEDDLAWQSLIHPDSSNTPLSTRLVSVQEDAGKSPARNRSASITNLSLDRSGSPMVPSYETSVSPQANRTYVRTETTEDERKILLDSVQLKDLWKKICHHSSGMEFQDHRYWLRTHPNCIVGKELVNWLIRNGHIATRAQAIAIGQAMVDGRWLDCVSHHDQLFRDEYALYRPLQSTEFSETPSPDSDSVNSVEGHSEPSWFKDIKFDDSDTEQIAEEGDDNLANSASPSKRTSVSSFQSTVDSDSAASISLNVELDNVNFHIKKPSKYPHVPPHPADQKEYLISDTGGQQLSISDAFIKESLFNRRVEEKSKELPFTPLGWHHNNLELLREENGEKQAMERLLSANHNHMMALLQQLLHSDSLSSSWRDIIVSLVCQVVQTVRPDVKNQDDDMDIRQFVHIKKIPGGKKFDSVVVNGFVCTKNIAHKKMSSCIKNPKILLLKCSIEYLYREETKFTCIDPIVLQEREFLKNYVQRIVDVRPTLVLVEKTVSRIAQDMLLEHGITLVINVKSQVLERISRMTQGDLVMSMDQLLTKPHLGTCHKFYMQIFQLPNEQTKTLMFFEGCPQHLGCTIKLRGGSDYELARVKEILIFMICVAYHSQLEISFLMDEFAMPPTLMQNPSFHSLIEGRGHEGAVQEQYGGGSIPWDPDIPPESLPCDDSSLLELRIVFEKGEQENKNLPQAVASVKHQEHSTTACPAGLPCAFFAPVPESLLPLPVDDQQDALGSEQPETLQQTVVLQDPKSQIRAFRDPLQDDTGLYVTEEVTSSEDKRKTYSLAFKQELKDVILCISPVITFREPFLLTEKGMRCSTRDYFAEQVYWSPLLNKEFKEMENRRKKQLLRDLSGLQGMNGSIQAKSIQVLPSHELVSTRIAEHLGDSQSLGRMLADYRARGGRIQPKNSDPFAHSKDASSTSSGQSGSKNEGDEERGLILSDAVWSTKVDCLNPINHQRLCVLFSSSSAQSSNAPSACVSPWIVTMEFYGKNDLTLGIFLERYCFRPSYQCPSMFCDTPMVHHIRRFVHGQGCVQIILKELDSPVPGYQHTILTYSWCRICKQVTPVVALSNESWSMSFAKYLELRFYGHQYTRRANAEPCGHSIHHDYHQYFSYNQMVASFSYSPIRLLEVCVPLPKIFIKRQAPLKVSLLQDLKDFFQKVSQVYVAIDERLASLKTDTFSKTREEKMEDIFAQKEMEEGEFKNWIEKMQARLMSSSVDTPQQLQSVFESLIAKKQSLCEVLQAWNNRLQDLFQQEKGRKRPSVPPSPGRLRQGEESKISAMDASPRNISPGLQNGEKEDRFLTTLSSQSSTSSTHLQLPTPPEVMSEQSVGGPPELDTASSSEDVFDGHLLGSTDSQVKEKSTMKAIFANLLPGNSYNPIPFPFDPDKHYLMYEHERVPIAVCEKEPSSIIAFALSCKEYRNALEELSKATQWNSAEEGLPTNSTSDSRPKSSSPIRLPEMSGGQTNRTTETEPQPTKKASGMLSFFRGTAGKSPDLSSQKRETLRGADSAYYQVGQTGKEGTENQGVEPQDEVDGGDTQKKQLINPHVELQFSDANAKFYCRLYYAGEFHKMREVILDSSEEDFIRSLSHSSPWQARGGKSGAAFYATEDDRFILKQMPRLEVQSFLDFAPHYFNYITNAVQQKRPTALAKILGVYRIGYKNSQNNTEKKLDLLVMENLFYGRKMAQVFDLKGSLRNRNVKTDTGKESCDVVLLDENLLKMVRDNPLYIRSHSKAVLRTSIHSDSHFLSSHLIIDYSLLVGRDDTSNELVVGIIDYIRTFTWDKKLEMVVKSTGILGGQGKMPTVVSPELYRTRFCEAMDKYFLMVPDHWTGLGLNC
Assay: Cell-based Pikfyve inhibition activity assay (EEA1 staining, mean vesicle size in BJ fibroblast cells)
Settings: Table 4, 4 hours treatment, 3 μM Apilimod = 100% inhibition
pEC50: −log10 of the molar value.
# Lookup of reported pEC50 keyed by entry

INSERT INTO measurements (compound, measured_result) VALUES
  ('COCc1cccc(-c2ccn(-c3cc(N4CCOCC4)nc([C@H](CO)OC)n3)n2)c1', '6.30 to 7.00'),
  ('CO[C@@H](CO)c1nc(N2CCOCC2)cc(-n2nc(-c3c[nH]c4ccccc34)cc2C)n1 (single isomer, unassigned)', '> 7.70'),
  ('Cc1cccc(-c2ccn(-c3cc(N4CCOCC4)nc(OCC(=O)C4CC4)n3)n2)c1', '7.00 to 7.70'),
  ('Cc1cccc(-c2ccn(-c3cc(N4CCOCC4)nc(C(F)(F)F)n3)n2)c1', '5.30 to 6.30'),
  ('COc1cccc(-c2ccn(-c3cc(N4CCOCC4)nc([C@H](CO)OC)n3)n2)c1', '6.30 to 7.00'),
  ('Cc1cccc(-c2ccn(-c3cc(N4CCOCC4)nc(OCC(=O)c4ccccc4)n3)n2)c1', '6.30 to 7.00'),
  ('c1ccc(-c2ccn(-c3cc(N4CCOCC4)nc(OCc4cccnn4)n3)n2)cc1', '6.30 to 7.00'),
  ('Cn1cc(CCOc2nc(N3CCOCC3)cc(-n3ccc(-c4c[nH]c5ccccc45)n3)n2)cn1', '6.30 to 7.00');

Ask: Field request: pEC50 | item: Cn1cc(CCOc2nc(N3CCOCC3)cc(-n3nc(O)cc3-c3ccccc3)n2)cn1
Reply: 6.30 to 7.00

Ask: Field request: pEC50 | item: Cc1cccc(-c2ccn(-c3cc(N4CCOCC4)n4ncc(C)c4n3)n2)c1
Reply: 5.30 to 6.30

Ask: Field request: pEC50 | item: COC(C)(CO)c1nc(N2CCOCC2)cc(-n2ccc(-c3cccc(C)c3)n2)n1 (stereo not shown) [Compound 227]
Reply: 6.30 to 7.00

Ask: Field request: pEC50 | item: Cc1cccc(-c2ccn(-c3cc(N4CCOCC4)c4[nH]ccc4n3)n2)c1
Reply: 5.30 to 6.30
